Assay: binders of probe aHhip on microarray, primary screen, stem cell growth factor project, biochemical, small-molecule microarray, fluorescence 635/667 (AID 1087);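 further: score merges spot fluorescence at 667nm with spot signal to noise ratio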
Conditions: higher = more signal
# composite z-score values compiled below
observationType: composite z-score

compound | observationType | experimentalResult
CC(C)NC(=O)[C@@]1(C)c2ccccc2C(=O)N(C(C)C)[C@H]1c1ccc(CO)cc1 | composite z-score | -0.252
CN(C)CCCNC(=O)[C@@H]1c2ccccc2C(=O)N(Cc2ccc(OC(F)(F)F)cc2)[C@H]1c1ccc(CO)cc1 | composite z-score | 0.287
[N-]=[N+]=Nc1ccccc1[C@H]1OC(c2ccc(OCCCO)cc2)=N[C@@]1(CCS(=O)(=O)c1ccccc1)C(=O)N1CCCCC1 | composite z-score | -0.201
COc1ccc(C(O)C2C=CC3C(=O)N(c4ccccc4)C(=O)C3N2Nc2ccccc2)cc1OCc1ccccc1 (configuration not stated) | composite z-score | 0.0515
C[C@H]1ON(c2ccc(C(=O)OC(C)(C)C)cc2)[C@@H](c2ccc(O)cc2)[C@@H]1C(=O)N1C(=O)OC[C@@H]1c1ccccc1 | composite z-score | -0.0022
C=C(/C(=C/C[C@@H](OC(=O)c1ccncc1)c1ccc(OCCO)cc1)c1cc(C(=O)OC)ccc1OC)C(C)C | composite z-score | -0.399
COc1cc(CO)cc(I)c1O[C@H]1C=C(C(=O)NCCO)C[C@@H](N(CC2CCCCC2)C(=O)c2ccc(C(F)(F)F)cc2)[C@@H]1O | composite z-score | 0.12

* * *

Target: Torsin-1A-interacting protein 2 (Homo sapiens) (UniProt Q8NFQ8)
Sequence (Q8NFQ8 whole entry, looked up): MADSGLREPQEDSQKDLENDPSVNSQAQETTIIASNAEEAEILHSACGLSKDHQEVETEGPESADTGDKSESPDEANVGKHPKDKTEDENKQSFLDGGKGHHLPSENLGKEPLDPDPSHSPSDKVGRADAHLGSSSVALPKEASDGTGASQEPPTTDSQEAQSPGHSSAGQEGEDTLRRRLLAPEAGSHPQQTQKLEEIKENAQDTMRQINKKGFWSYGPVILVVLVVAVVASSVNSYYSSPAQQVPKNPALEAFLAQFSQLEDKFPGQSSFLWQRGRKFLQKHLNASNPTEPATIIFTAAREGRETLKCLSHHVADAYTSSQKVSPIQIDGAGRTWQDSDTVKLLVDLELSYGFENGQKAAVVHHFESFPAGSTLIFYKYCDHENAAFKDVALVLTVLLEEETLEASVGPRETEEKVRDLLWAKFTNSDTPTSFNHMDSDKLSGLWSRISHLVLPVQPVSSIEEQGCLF
Assay: LULL1 binders on small-molecule microarray, primary screen, cell lysate, human LULL1 lysate, 635/667 nm fluorescence (AID 1092);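 further: probe is lysate of COS7 cells overexpressing human LULL1; score merges per-feature 667 nm fluorescence with signal-to-noise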
Details: hLULL1 lysate binding, 635 nm fluorescence, higher = more signal

molecule | composite z-score
COCCOC(=O)N1C(=O)[C@@]2(c3cc(C#CC4=CCCCC4)ccc31)[C@H](c1ccccc1OCCO)N1[C@H](c3ccccc3)[C@H](c3ccccc3)OC(=O)[C@H]1[C@@H]2C(=O)N1CCc2cc(OC)c(OC)cc2C1 | 0.889
[N-]=[N+]=NCc1ccccc1C[C@@]1(C(=O)N2CCCCC2)N=C(c2ccc(OCCCO)cc2)O[C@@H]1c1ccccc1N=[N+]=[N-] | 1.73
CCN(CC)c1ccc(N2CC=CC34O[C@@H]5/C=C\CCC(C)OC(=O)C5[C@H]3C(=O)N(CCO)[C@@H]4C2=O)cc1 (stereo partly specified) | 3.17
CC1CC/C=C\[C@H]2OC34C=CCN(C(C)C)C(=O)[C@H]3N(CCCCCO)C(=O)[C@@H]4C2C(=O)O1 (stereo partly specified) | -0.573
O=C1O[C@@H](c2ccccc2)[C@@H](c2ccccc2)N2[C@@H](c3ccccc3OCCO)[C@]3(C(=O)Nc4ccc(C#CCCO)cc43)[C@@H](C(=O)Nc3nc4ccccc4s3)[C@H]12 | 2.64
CN1C(=O)C2C=CC(C(O)c3c(F)cccc3Cl)N(Nc3ccccc3)C2C1=O (stereo unspecified) | 3.44

* * *

Test: A549 cell viability effects, profiling panel, calcein-AM fluorescence, 48 h, basal (AID 1162); further: test concentration not given here
Conditions: higher = more signal
Parameter z-score: see the listing below.
observationType: z-score

structureNotation | observationType | experimentalResult
COc1ccc(C#Cc2ccc3c(c2)[C@]2(C(=O)N3)[C@H](C(=O)N3CCc4cc(OC)c(OC)cc4C3)[C@H]3C(=O)O[C@H](c4ccccc4)[C@H](c4ccccc4)N3[C@@H]2c2ccc(O)cc2)cc1 | z-score | -0.522
NCCCCCNC(=O)[C@@H]1C[C@@H]2C(=O)N[C@@H](CCCCN)C(=O)N2[C@@H]1c1cccc(OCCO)c1 | z-score | 0.338
C=C[C@H](COC(C)=O)NS(=O)(=O)c1ccc(Br)cc1 | z-score | 0.0955
[N-]=[N+]=NCc1ccccc1C[C@@]1(C(=O)N2CCCCC2)N=C(c2ccc(OCCCO)cc2)O[C@@H]1c1ccccc1N=[N+]=[N-] | z-score | -0.0222

Entry source: PubChem BioAssay
